Biological target: BCAT2 (Homo sapiens, UniProt O15382)
Test: BCAT2 in vitro enzyme inhibition assay (resazurin/diaphorase-coupled fluorescence)
Assay type: biochemical
Details: average where tested multiple times
pIC50: −log10 of the molar value.
We begin with a simple list: items and their reported pIC50.

Some solved entries appear below for comparison.
C#Cc1ccc(C(=O)NC2CC(n3c(-c4ccccc4F)nc4cnc(-c5ncco5)cc43)CN(C)C2)s1 (stereo not shown): ≥ 7.00
CC(C)Cc1nc2cnc(-c3ccccc3C#N)cc2n1[C@@H]1CCC[C@H](NC(=O)c2ncc(Cl)s2)C1: 6.30 to 7.00
N#CC1CC(NC(=O)c2ncc(Cl)s2)CC(n2c(-c3ccccc3F)nc3cnc(-c4nc[nH]n4)cc32)C1 (single isomer, unassigned): ≥ 7.00
CNC(=O)c1ccc2c(c1)nc(-c1ccccn1)n2C1CC(NC(=O)c2ccc(Br)s2)CN(C)C1 (stereo not shown): 6.00 to 6.30
CC(C)Cc1nc2cnc(-c3nnco3)cc2n1[C@@H]1CCC[C@H](NC(=O)c2ncc(Cl)s2)C1: 6.30 to 7.00

Looking up CC(C)Cc1nc2cnc(-c3nc[nH]n3)cc2n1[C@H]1C[C@H](O)C[C@@H](NC(=O)c2ncc(Cl)s2)C1 , I found its pIC50 recorded as 6.00 to 6.30

Looking up O=C(NC1CCCC(n2c(-c3ccccn3)nc3cnc(-c4nnco4)cc32)C1)c1ccc(Br)s1 (stereo not shown) , I found its pIC50 recorded as ≥ 7.00

====

Biological target: BCAT2 (Homo sapiens, UniProt O15382)
Sequence (O15382 28-392): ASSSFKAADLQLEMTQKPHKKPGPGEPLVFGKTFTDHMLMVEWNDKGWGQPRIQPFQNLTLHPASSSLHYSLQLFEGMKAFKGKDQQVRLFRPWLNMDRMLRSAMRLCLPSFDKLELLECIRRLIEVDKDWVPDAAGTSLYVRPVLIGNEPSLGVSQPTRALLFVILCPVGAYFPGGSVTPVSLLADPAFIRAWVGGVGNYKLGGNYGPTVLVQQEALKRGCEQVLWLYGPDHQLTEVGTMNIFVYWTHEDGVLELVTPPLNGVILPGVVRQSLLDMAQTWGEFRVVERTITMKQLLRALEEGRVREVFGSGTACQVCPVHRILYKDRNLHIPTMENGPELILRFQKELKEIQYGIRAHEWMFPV
Assay: BCAT2 in vitro enzyme inhibition assay (resazurin/diaphorase-coupled fluorescence)
Type: biochemical
Conditions: average where tested multiple times
We begin with a simple list: items and their reported IC50.

Some solved entries appear below for comparison.
CC(C)Cc1nc2cnc(-c3nc[nH]n3)cc2n1[C@@H]1CCC[C@H](NC(=O)c2ccc(C#N)s2)C1: ≤ 100 nM
CC(C)Cc1nc2cnc(-n3cc(F)cn3)cc2n1[C@H]1C[C@H](O)C[C@@H](NC(=O)c2ncc(Cl)s2)C1: > 1000 nM

Looking up O=C(N[C@H]1CCC[C@@H](n2c(-c3ccccc3F)nc3cnc(-c4noc(=O)[nH]4)cc32)C1)c1ncc(Cl)s1 , I found its IC50 recorded as ≤ 100 nM

Looking up CC(C)Cc1nc2cnc(-c3cscn3)cc2n1[C@@H]1CCC[C@H](NC(=O)c2ncc(Cl)s2)C1 , I found its IC50 recorded as ≤ 100 nM

Looking up CC(=O)N1CC(NC(=O)c2ccc(Br)s2)CC(n2c(-c3ccccn3)nc3ccc(-c4nnco4)cc32)C1 (centres unmarked) , I found its IC50 recorded as ≤ 100 nM

Looking up Cc1noc(C)c1-c1nc2cnc(-n3ccnn3)cc2n1[C@@H]1CCC[C@H](NC(=O)c2ncc(C(F)F)s2)C1 , I found its IC50 recorded as > 1000 nM

Looking up O=C(N[C@H]1C[C@H](O)C[C@@H](n2c(-c3ccccc3F)nc3cnc(-c4ccn[nH]4)cc32)C1)c1ncc(Cl)s1 (single isomer, unassigned) , I found its IC50 recorded as ≤ 100 nM

Looking up O=C(N[C@H]1CCC[C@@H](n2c(C3COCCO3)nc3cnc(-c4nc[nH]n4)cc32)C1)c1ncc(Cl)s1 (single isomer, unassigned) [Example 177] , I found its IC50 recorded as 500 to 1000 nM

Looking up CO[C@@H]1C[C@@H](NC(=O)c2ccc(Cl)s2)C[C@@H](n2c(CC(C)C)nc3cnc(-c4ncccn4)cc32)C1 (single isomer, unassigned) , I found its IC50 recorded as 100 to 500 nM

Looking up CC(C)Cc1nc2cnc(-c3ccccc3CC#N)cc2n1[C@@H]1CCC[C@H](NC(=O)c2ccc(Cl)s2)C1 , I found its IC50 recorded as 100 to 500 nM

Looking up O=C(N[C@H]1CCC[C@@H](n2c(-c3ncccc3F)nc3cnc(-n4nccn4)cc32)C1)c1ncc(C(F)F)s1 , I found its IC50 recorded as ≤ 100 nM

Looking up CC(C)Cc1nc2cnc(-c3ccn(C)n3)cc2n1C1CC(O)CC(NC(=O)c2ncc(Cl)s2)C1 (centres unmarked) , I found its IC50 recorded as ≤ 100 nM

Looking up CC(C)Cc1nc2cnc(-c3nc[nH]n3)cc2n1[C@@H]1CCC[C@H](NC(=O)c2ccc(Cl)s2)C1 , I found its IC50 recorded as ≤ 100 nM

Looking up CO[C@H]1C[C@H](NC(=O)c2ncc(Cl)s2)C[C@H](n2c(-c3ccccc3F)nc3cnc(-n4nccn4)cc32)C1 (stereo in doubt) , I found its IC50 recorded as 500 to 1000 nM

====

We begin with a simple list: items and their reported pIC50.
Target: BCAT2 (Homo sapiens, UniProt O15382)
Test: BCAT2 in vitro enzyme inhibition assay (resazurin/diaphorase-coupled fluorescence)
Assay type: biochemical
Conditions: average where tested multiple times
pIC50: −log10 of the molar value.

Some solved entries appear below for comparison.
CO[C@H]1C[C@H](NC(=O)c2ncc(Cl)s2)C[C@H](n2c(CC(C)C)nc3cnc(-c4ccccn4)cc32)C1 (stereo in doubt): < 6.00
Cc1coc(-c2cc3c(cn2)nc(-c2ccccc2F)n3C2CC(NC(=O)c3ncc(Cl)s3)CN(C)C2)n1 (centres unmarked): ≥ 7.00

Looking up CC(C)Cc1nc2cnc(-n3cncn3)cc2n1[C@@H]1CCC[C@H](NC(=O)c2ncc(Cl)s2)C1 , I found its pIC50 recorded as 6.30 to 7.00

Looking up Cc1nsc(-c2cc3c(cn2)nc(CC(C)C)n3[C@@H]2CCC[C@H](NC(=O)c3ncc(Cl)s3)C2)n1 , I found its pIC50 recorded as 6.30 to 7.00

====

We begin with a simple list: items and their reported pIC50.
Target: BCAT2 (Homo sapiens)
Experiment: BCAT2 in vitro cell inhibition using engineered A549 cells (KMV cell assay, 13C6-KMV by LC-MS/MS)
Assay type: cell-based
Parameters: The result was an engineered A549 cell line that expressed endogenous BCAT2; endogenous in cells; host or cells: A549 cells with MUT and BCAT1 knocked out by CRISPR/CAS9
Conditions: average where tested multiple times
pIC50: −log10 of the molar value.

CO[C@@H]1C[C@@H](NC(=O)c2ccc(Cl)s2)C[C@@H](n2c(-c3ccccc3F)nc3cnc(-c4nc[nH]n4)cc32)C1 (stereo in doubt): ≥ 7.00
CNc1nccc(-c2cc3c(cn2)nc(CC(C)C)n3[C@@H]2CCC[C@H](NC(=O)c3ncc(Cl)s3)C2)n1: < 6.00
CC(C)Cc1nc2cnc(-c3nc4ccccc4o3)cc2n1[C@@H]1CCC[C@H](NC(=O)c2ncc(Cl)s2)C1: 6.30 to 7.00
O=C(N[C@H]1CCC[C@@H](n2c(-c3ncccc3F)nc3cnc(-n4ccnn4)cc32)C1)c1ncc(Br)s1: 6.00 to 6.30

In the following, a different molecule is considered.
Looking up CC(C)Cc1nc2cnc(-n3nccn3)cc2n1[C@@H]1CCC[C@H](NC(=O)c2ccc(Cl)s2)C1 , I found its pIC50 recorded as ≥ 7.00

====

Molecular target: BCAT2 (Homo sapiens, UniProt O15382)
Test: BCAT2 in vitro cell inhibition using engineered A549 cells (KMV cell assay, 13C6-KMV by LC-MS/MS)
Format: cell-based
Parameters: The result was an engineered A549 cell line that expressed endogenous BCAT2; endogenous in cells; host or cells: A549 cells with MUT and BCAT1 knocked out by CRISPR/CAS9
Conditions: average where tested multiple times
PROPERTY LABEL: IC50

Some solved entries appear below for comparison.
CO[C@@H]1C[C@@H](NC(=O)c2ncc(Cl)s2)C[C@@H](n2c(-c3ccccc3F)nc3cnc(-n4cncn4)cc32)C1 (stereo in doubt): ≤ 0.1 µM
C#Cc1cnc(C(=O)N[C@H]2CCC[C@@H](n3c(-c4ncccc4F)nc4cnc(-n5ccnn5)cc43)C2)s1: 0.1 to 0.5 µM
CC(O)CN1CC(NC(=O)c2ncc(C(F)F)s2)CC(n2c(-c3ncccc3F)nc3cnc(-n4nccn4)cc32)C1 (centres unmarked): > 1 µM
O=C(N[C@H]1CCC[C@@H](n2c(-c3ccccc3F)nc3cc(-n4nccn4)ncc32)C1)c1ncc(C(F)F)s1: > 1 µM

Looking up CC(=O)N1CC(NC(=O)c2ccc(Br)s2)CC(n2c(-c3ncccc3F)nc3cc(-c4nnco4)ccc32)C1 (centres unmarked) , I found its IC50 recorded as > 1 µM

Looking up C#Cc1ccc(C(=O)N[C@H]2CCC[C@@H](n3c(CC(C)C)nc4cnc(-c5nc[nH]n5)cc43)C2)s1 , I found its IC50 recorded as ≤ 0.1 µM
